system: MDA-MB-435; assay: NCI tumour cell line growth inhibition, 48 h
Field: TGI. Provide a value for each of the molecules that follow.

Which value of TGI has been reported for `CC1=C[C@@H]2[C@@H](CC(CO)=C[C@H]3[C@@H]4C(C)(C)[C@]4(OCC(C)C)[C@H](OCC(C)C)[C@@H](C)[C@]23O)C1=O` in the records?
> 6.31 µM

How about OC(CC(O)(C(F)(F)F)C(F)(F)F)C(O)c1ccco1 (stereo unspecified) ?
> 10 µM

Entry `O=C(COc1ccc(Cl)cc1Cl)N/N=C/C=C/c1ccc([N+](=O)[O-])o1` please
> 100 µM

// next record `Nc1ccc(-c2ccc(-c3nc4cc(Cl)c(Cl)cc4[nH]3)cc2)cc1`
> 84.7 µM

Next molecule: `O=C1COCCN1C(=O)c1ccccc1Cl`
> 100 µM

Then what about the molecule `COc1ccc(-n2sc3ncc([N+](=O)[O-])cc3c2=O)cc1` ?
> 100 µM

###

Exercise: state measured TGI for each of the molecules provided.
system: ACHN renal; assay: NCI tumour cell line growth inhibition, 48 h

Which TGI value is on record for `CCOC(=O)c1ccc(N=c2oc3ccc(OC)cc3cc2-c2nc3ccccc3[nH]2)cc1` ?
> 100 µM

Next molecule: `O=C1COCCN1C(=O)c1ccccc1Cl`
> 100 µM

Cool, now `C/C(=C\c1ccn(-c2ccc(N)cc2F)n1)[C@@H]1C[C@@H]2O[C@]2(C)CCC[C@H](C)[C@H](O)[C@@H](C)C(=O)C(C)(C)[C@@H](O)CC(=O)O1`
> 50 µM

Request: `COC(=O)Cc1cc(=O)n2c([nH]c3ccccc32)c1C#N`
> 100 µM

Also `COCN1C(=O)[C@@H]2CCCN2C(=O)c2ccc([N+](=O)[O-])cc21` , if possible.
> 100 µM

###

tested on: MDA-MB-435; test: NCI tumour cell line growth inhibition, 48 h
measure: TGI

Please give the measured TGI for this compound: `Cc1ccc(S(=O)(=O)Nn2c(O)c(C#N)c(-c3ccc(N(C)C)cc3)c(C#N)c2=O)cc1`
> 50 µM

Consider next the compound CC1C(O)Oc2cc3c(cc2C1c1ccccc1O)OCO3 (centres undefined) in the same way.
> 100 µM

Repeat with `C[C@]12CCC(=O)C=C1CC[C@@H]1[C@@H]2[C@@H](O)C[C@@]2(C)[C@H]1CC[C@]2(O)C(=O)COC(=O)C1CCCC1`
> 100 µM

`Cc1nn(C)c2cc(N(C)c3ccnc(Nc4cccc(S(N)(=O)=O)c4)n3)ccc12` , same question.
> 25 µM

How about this compound: `Nc1nc(-c2cccs2)cs1`
> 100 µM

Entry `c1cc(C[S+]2CCCC2)sc1C[S+]1CCCC1` please
> 100 µM

Can you check `COCN1C(=O)[C@@H]2CCCN2C(=O)c2ccc([N+](=O)[O-])cc21` next?
> 100 µM

Now give it for `O=[N+]([O-])c1cc2c(c([N+](=O)[O-])c1)Nc1ccccc1O2` too.
> 100 µM

Can you handle `Cn1c(=O)c2c(nc(NCCNc3nc4c(c(=O)n(C)c(=O)n4C)n3C)n2C)n(C)c1=O` next?
> 100 µM

Try `COc1cc2c(cc1OC)-c1cc3ccc(OC)c(OC)c3c[n+]1CC2` next.
> 100 µM

Same lookup for C=CCSSc1ncnc2c1ncn2C1OC(CO)C(O)C1O (centres undefined) , please.
> 100 µM

Entry to check: Cc1ccc(C2=NN(c3ccc(S(N)(=O)=O)cc3)C(c3cn(-c4ccccc4)nc3-c3ccccc3)C2)cc1 (centres undefined)
> 100 µM

Moving on to the next compound: `O=C(Nc1ccc(Cl)cc1)NS(=O)(=O)c1c(-c2ccccc2)oc2ccccc2c1=O`
> 100 µM

Thanks! And `COc1ccc2c(c1)C(=O)c1c-2c(NCCN(C)C)nc2ccccc12` ?
20.4 µM

Another compound: `N#Cc1nn(-c2cc(=O)[nH]c3ccc(Br)cc23)c(N)c1C#N`
> 100 µM

What do you have for `Oc1c(I)cc(I)cc1CN(Cc1ccccn1)Cc1ccccn1` ?
18.7 µM

Can you handle `COc1cnc2c(c1)C(=O)c1c-2n(CCCNC(C)C)c(=O)c2cc([N+](=O)[O-])ccc12` next?
0.261 µM

Same again, this time with `CCOP(=O)(OCC)C(F)(F)Cc1cnc(C)c2c1COC(C)(C)O2`
> 10 µM

Another compound to check: `COc1ccc2nc(-c3cc4c([nH]c5ccccc54)c(-c4ccc(F)c(F)c4)n3)[nH]c2c1`
15.4 µM
